Tested on: SF-295 CNS
ASSAY_REMARKS: NCI-60 one-dose screen, 48 h
COND: 10 µM unless noted
Compounds without any hit were thinned out: in the full panel of roughly 83,000, 20% have a hit. Activity calls are given as the source filed them. The calls were made as follows: active = growth percent below 10; inactive = the rest.
Outcome codes: active, inactive

>>> df
                                entry_smiles  assigned_label
 0  N#C/C(=C\c1ccc(-c2ccc(Cl)cc2)o1)C(=O)Nc1ncc(Cc2ccc(Cl)cc2)s1          active
 1  COc1cc2oc(-c3cccc(NC(=O)c4cccc(Br)c4)c3)cc(=O)c2c(OC)c1OC        inactive
 2  N#C/C(=C/c1ccc([N+](=O)[O-])cc1)n1nnc2cc(F)c(F)cc21        inactive
 3  CCN(CC)c1ccc(/C=C/C(=O)c2ccc(Nc3nc(Nc4ccccc4)nc(Nc4ccccc4)n3)cc2)cc1          active
 4  C=C1C(=O)O[C@H]2[C@H]1CC/C(COC(=O)NCc1ccc(Cn3c(=O)sn(CCI)c3=O)cc1)=C\CC[C@@]1(C)O[C@@H]21        inactive
 5  COc1cc(CNC(=O)/C=C/C=C/c2ccc3c(c2)OCO3)ccc1OCc1cn(-c2ccc(C)c(C)c2)nn1        inactive
 6  Cc1ccccc1NC(=O)c1sc2nc(C)c(C(=O)/C=C/c3ccccc3)cc2c1N        inactive
 7       Cc1ccc(NC(=S)NNC(=S)NNc2ccccc2)cc1C        inactive
 8  Oc1c(Cl)cc(Cl)cc1/C=N/Nc1nnc(N/N=C/c2cc(Cl)cc(Cl)c2O)c2ccccc12          active
 9  Cc1ccc(-c2nc(N3CCNCC3)c3oc(-c4ccccc4)nc3n2)cc1          active
10  CC(C)(C)[Si](C)(C)O[C@H]1C(=O)C=CN2CC=C[C@@H]12        inactive
